B1: CPOX (parent)
chain: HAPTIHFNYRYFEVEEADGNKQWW

- Variants of: B1
- ASSAY_PROCEDURE: protein stability index of a GFP-peptide fusion (GPS, HEK-293T) (PSI 1-6); higher = more stable;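 also: lentivirally expressed fusions sorted by FACS into six bins by GFP to DsRed ratio, PSI derived from sequencing read proportions per bin multiplied by bin number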
- MEASUREMENT_PARAMETERS: c terminus: a fixed tail appended
I'd appreciate it if you could supply protein stability index values for the items below.
Provide a numeric answer; units are not to be included.

Reported protein stability index, variant K21W : ____
1.89

Likewise for Q22T ?
2.27

Likewise for T4E ?
2.29

Likewise for E15S ?
2.49

Likewise for F7Y ?
2.48

Likewise for E13G ?
2.06

Likewise for N8P ?
2.69

Likewise for N8F ?
1.79

Likewise for F12K ?
3.04

Likewise for W23H ?
3.06

Likewise for T4P ?
2.7

Likewise for E15F ?
2.14

Likewise for G19R ?
2.25

Likewise for I5R ?
2.64

Likewise for D18K ?
2.16

Likewise for E16N ?
1.83

Likewise for H6Q ?
2.52

Likewise for K21T ?
1.53

Likewise for Y9H ?
2.9

Likewise for E13Q ?
2.17

Likewise for Q22A ?
1.98

Likewise for K21R ?
2.43
